Target: T1, human mutCALR on BaF3 cells stably expressing human MPL and human mutCALR (MPL-mutCALR cells) (human)
T1 construct: also called mutant calreticulin
T1 chain: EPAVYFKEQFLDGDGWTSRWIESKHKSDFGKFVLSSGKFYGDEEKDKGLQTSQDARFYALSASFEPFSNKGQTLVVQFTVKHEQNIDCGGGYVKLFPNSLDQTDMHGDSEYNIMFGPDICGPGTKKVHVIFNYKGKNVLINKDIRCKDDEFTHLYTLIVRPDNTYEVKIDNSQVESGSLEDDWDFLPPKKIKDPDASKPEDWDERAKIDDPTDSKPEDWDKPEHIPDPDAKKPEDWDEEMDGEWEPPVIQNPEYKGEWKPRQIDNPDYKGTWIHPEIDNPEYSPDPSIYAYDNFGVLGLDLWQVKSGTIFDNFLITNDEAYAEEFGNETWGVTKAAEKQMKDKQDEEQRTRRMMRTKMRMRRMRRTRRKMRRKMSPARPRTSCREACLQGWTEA
Experiment: flow cytometry, BaF3 MPL-mutCALR cells
VALUE KIND: EC50 (ng/mL)
Please reply with the bare figure in ng/mL and do not write the unit itself.

BINDER	RESULT UNIT	EC50
anti-mutCALR antibody clone 143 (antibody, human IgG1, lambda, N297A, V domains shown) VH: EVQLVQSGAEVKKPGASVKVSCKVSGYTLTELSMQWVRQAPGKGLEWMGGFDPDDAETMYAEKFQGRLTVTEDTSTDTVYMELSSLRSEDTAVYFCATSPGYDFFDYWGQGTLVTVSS VL: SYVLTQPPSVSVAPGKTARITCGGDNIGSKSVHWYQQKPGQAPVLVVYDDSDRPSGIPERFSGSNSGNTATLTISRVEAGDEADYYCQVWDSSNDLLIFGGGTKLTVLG	ng/mL	7.9
anti-mutCALR antibody clone 61 (antibody, human IgG1, lambda, N297A, V domains shown) VH: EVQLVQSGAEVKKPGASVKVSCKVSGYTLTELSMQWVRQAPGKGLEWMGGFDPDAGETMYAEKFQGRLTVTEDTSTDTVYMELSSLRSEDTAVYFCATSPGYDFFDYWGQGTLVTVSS VL: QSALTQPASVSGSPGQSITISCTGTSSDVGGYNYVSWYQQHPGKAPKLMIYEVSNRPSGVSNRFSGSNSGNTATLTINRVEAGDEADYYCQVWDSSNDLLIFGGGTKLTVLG	ng/mL	6.3
anti-mutCALR antibody clone 140 (antibody, human IgG1, lambda, N297A, V domains shown) VH: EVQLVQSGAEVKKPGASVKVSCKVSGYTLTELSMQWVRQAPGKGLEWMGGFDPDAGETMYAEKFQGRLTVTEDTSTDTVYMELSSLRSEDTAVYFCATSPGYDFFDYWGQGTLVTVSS VL: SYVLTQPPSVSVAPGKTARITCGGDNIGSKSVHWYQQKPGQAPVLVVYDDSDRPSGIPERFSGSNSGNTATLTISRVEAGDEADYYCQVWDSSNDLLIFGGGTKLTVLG	ng/mL	4.3
anti-mutCALR antibody clone 171 (antibody, human IgG1, lambda, N297A, V domains shown) VH: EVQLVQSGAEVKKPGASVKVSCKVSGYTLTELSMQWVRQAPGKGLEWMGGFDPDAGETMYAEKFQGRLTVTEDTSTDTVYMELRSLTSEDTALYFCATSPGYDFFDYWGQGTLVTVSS VL: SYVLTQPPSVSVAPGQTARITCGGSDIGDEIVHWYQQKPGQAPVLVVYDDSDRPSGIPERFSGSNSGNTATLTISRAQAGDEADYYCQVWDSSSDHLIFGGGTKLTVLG	ng/mL	21.7

INPUT: Please give the documented EC50 of anti-mutCALR antibody clone 73 (antibody, human IgG1, lambda, N297A, V domains shown) VH: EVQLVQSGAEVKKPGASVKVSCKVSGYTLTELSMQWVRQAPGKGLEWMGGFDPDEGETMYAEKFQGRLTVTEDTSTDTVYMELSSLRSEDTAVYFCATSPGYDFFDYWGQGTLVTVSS VL: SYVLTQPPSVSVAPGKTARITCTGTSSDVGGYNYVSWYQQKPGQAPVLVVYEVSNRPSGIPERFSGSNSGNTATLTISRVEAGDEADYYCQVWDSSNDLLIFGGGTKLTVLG
OUTPUT: 2

INPUT: Please give the documented EC50 of anti-mutCALR antibody clone 84 (antibody, human IgG1, lambda, N297A, V domains shown) VH: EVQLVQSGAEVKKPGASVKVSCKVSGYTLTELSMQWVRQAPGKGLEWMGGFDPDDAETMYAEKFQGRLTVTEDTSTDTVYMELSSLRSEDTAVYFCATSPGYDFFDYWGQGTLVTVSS VL: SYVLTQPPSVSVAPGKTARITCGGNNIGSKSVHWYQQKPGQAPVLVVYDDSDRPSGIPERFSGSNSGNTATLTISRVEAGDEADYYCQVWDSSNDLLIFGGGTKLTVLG
OUTPUT: 2.9

INPUT: Please give the documented EC50 of anti-mutCALR antibody clone 176 (antibody, human IgG1, lambda, N297A, V domains shown) VH: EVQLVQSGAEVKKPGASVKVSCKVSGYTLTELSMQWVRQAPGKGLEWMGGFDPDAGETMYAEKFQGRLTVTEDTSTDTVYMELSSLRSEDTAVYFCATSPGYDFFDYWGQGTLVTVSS VL: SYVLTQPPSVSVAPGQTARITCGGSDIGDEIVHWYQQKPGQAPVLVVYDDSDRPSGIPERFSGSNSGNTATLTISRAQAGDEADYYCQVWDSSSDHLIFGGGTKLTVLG
OUTPUT: 3.1

INPUT: Please give the documented EC50 of anti-mutCALR antibody clone 187 (antibody, human IgG1, lambda, N297A, V domains shown) VH: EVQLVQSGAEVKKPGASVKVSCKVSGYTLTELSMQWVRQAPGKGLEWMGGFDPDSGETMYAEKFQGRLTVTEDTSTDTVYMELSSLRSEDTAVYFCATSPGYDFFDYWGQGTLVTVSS VL: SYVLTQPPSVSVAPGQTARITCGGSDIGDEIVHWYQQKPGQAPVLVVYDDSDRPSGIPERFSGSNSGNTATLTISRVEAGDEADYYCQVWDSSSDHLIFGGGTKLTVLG
OUTPUT: 3.5

INPUT: Please give the documented EC50 of anti-mutCALR antibody clone 35 (antibody, human IgG1, lambda, V domains shown, human IgG1) VH: QVQLVQSGAEVKKPGATVKISCKVSGYSFTDYFIHWVQQAPGKGLAWVGLVDPEDGETIYAERFQGRVTITADTSTDTAYMELSSLRSEDTAVYYCATPGGILTDPDAFDIWGQGTMVTVSS VL: QSALTQPASVSGSPGQSITISCTGTSSDVGGYNYVSWYQQHPGKAPKLMIYEVSNRPSGVSNRFSGSKSGNTASLTISGLQAEDEADYYCSSYTSSSTPYVFGTGTKVTVLG
OUTPUT: 20

INPUT: Please give the documented EC50 of anti-mutCALR antibody clone 183 (antibody, human IgG1, lambda, N297A, V domains shown) VH: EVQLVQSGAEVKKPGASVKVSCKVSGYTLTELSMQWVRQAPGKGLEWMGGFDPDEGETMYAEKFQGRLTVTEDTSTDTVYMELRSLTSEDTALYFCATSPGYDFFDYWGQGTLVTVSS VL: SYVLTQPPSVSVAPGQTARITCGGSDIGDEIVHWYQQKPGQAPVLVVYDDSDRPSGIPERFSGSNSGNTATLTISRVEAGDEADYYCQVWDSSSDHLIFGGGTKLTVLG
OUTPUT: 5
